subjectOfTest: human RORγ (Homo sapiens, UniProt P51449)
Construct: human RORγ, from Ser253 to Lys518; expressed in transfected cells; host or cells: CHO cells (Chinese hamster ovary), transient co-transfection with pG5-Luc
Sequence (P51449 253-518): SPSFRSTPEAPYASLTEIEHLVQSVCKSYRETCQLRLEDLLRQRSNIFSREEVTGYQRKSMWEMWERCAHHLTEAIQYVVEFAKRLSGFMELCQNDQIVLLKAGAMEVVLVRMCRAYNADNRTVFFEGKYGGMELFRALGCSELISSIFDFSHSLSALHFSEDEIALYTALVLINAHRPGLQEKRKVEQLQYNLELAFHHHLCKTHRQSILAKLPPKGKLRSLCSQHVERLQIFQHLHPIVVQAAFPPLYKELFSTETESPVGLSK
experimentDescription: In vitro assay of inhibitory effect against RORγ transcriptional activity (GAL4-hRORγ LBD luciferase reporter gene assay in CHO cells)
Format: cell-based
conditionLabel: GAL4-hRORγ LBD / pG5-Luc in CHO cells, 2 days incubation
Method: In Vitro Assay of Inhibitory Effect Against RORγ Transcriptional Activity Inhibitory effect of a test article on transcriptional activity of RORγ was measured by means of the following reporter gene assay. […] RORγ transcriptional activity was detected as the intracellular luciferase activity using SteadyLite HTS Reporter Gene Assay System (Perkin Elmer). […] After the incubation at room temperature for 10 minutes, luminescence of each well was measured by a microplate reader. […]
assayEndpoint: pEC50
Please note pEC50 is a logarithmic value: minus log10 of concentration in mol/L. Answer with that number alone.

IN: Fill in the blank: the reported pEC50 of CC(C)(C)COc1ccc(C2NC(=O)NC=C2C2CC(C(=O)O)C2)cc1Cl (racemic) [Example 62] is ____.
OUT: 6.18

IN: Fill in the blank: the reported pEC50 of CCCCc1ccc(C2(C)NC(=O)N(CCCC(=O)O)C=C2C(C)C)cc1F (racemic) [Example 70] is ____.
OUT: 6.60

IN: Fill in the blank: the reported pEC50 of CC(C)CCOc1ccc([C@]2(C)NC(=O)N(CCC(=O)O)C=C2C(C)C)cc1Cl [Example 150] is ____.
OUT: 7.68

IN: Fill in the blank: the reported pEC50 of CC(C)C1=CN(CCC(=O)O)C(=O)N[C@@]1(C)c1ccc(CC[Si](C)(C)C)c(Cl)c1 [Example 158] is ____.
OUT: 7.52

IN: Fill in the blank: the reported pEC50 of CC(C)C1=CN(C[C@H]2C[C@H](C(=O)O)C2)C(=O)N[C@@]1(C)c1ccc(CCC(C)(C)C)c(Cl)c1 [Example 154] is ____.
OUT: 8.00

IN: Fill in the blank: the reported pEC50 of CC(C)C1=CN(CCC(=O)O)C(=O)NC1(C)c1ccc(C2CCCC(C)(C)C2)c(Cl)c1 (single isomer, unassigned) [Example 167] is ____.
OUT: 7.19

IN: Fill in the blank: the reported pEC50 of CC(C)C1=CN(CCC(=O)O)C(=O)N[C@@]1(C)c1ccc(C2CCC2)c(Cl)c1 [Example 153] is ____.
OUT: 6.49

IN: Fill in the blank: the reported pEC50 of CC(C)(C)CCc1ccc(C2(C)NC(=O)NC=C2C(C)(C)CCC(=O)O)cc1Cl (single isomer, unassigned) [Example 130] is ____.
OUT: 8.00

IN: Fill in the blank: the reported pEC50 of CC(C)(C)CCc1ccc(C2NC(=O)N([C@H]3C[C@H](C(=O)O)C3)C=C2C(C)(C)C)cc1Cl (single isomer, unassigned) [Example 101] is ____.
OUT: 7.49

IN: Fill in the blank: the reported pEC50 of CC(C)C1=CN(CCC(=O)O)C(=O)N[C@@]1(C)c1ccc(CCC2CCC2)c(Cl)c1 [Example 122] is ____.
OUT: 7.55

IN: Fill in the blank: the reported pEC50 of CC(C)C1=CN([C@H]2CC[C@@H](C(=O)O)CC2)C(=O)NC1(C)c1ccc(CCC(C)(C)C)c(Cl)c1 (mixture of isomers) [Example 30] is ____.
OUT: 7.22

IN: Fill in the blank: the reported pEC50 of CC(C)(C)CCc1ccc([C@@]2(C)NC(=O)N(CCCC(=O)O)C=C2C2CCOCC2)cc1Cl [Example 91] is ____.
OUT: 6.27

IN: Fill in the blank: the reported pEC50 of CC(C)(C)COc1ccc(C2NC(=O)NC=C2C(C)(C)CCC(=O)O)cc1Cl (racemic) [Example 7] is ____.
OUT: 6.82

IN: Fill in the blank: the reported pEC50 of CC(C)C1=CN(CCC(=O)O)C(=O)N[C@@]1(C)c1ccc(CCC(C)(C)C)c(F)c1 [Example 176] is ____.
OUT: 7.66

IN: Fill in the blank: the reported pEC50 of CC(C)C1=CN(CCCC(C)(C)C(=O)O)C(=O)N[C@@]1(C)c1ccc(CCC(C)(C)C)c(Cl)c1 [Example 75] is ____.
OUT: 6.53

IN: Fill in the blank: the reported pEC50 of CC(C)C1=CN(CCC(=O)O)C(=O)NC1(C)c1ccc(C2=CC(C)(C)CCC2)c(Cl)c1 (single isomer, unassigned) [Example 151] is ____.
OUT: 7.74

IN: Fill in the blank: the reported pEC50 of CC(C)C1=CN(CCCC(=O)O)C(=O)N[C@@]1(C)c1ccc(CCC(C)(C)C)c(Cl)c1 [Example 15] is ____.
OUT: 7.92

IN: Fill in the blank: the reported pEC50 of CC(C)(C)CCc1ccc([C@]2(C)NC(=O)N(CCCC(=O)O)C=C2C2CC2)cc1Cl [Example 57] is ____.
OUT: 7.51

IN: Fill in the blank: the reported pEC50 of CC(C)C1=CN([C@H]2C[C@H](C(=O)O)C2)C(=O)N[C@@]1(C)c1ccc(CCC(C)(C)C)c(Cl)c1 [Example 42] is ____.
OUT: 7.51

IN: Fill in the blank: the reported pEC50 of CC(C)C1=CN([C@H]2C[C@H](CC(=O)O)C2)C(=O)N[C@@]1(C)c1ccc(CCC(C)(C)C)c(Cl)c1 [Example 108] is ____.
OUT: 7.80

The origin of these recorded values is patent US10196363B2.
